pIC50: recorded values
# System: gamma secretase cleavage of NotchΔE (constitutively active rat Notch1 construct ZEDN1)
# PROTOCOL NOTES: Notch signaling assay for selective inhibitors of gamma secretase (4xwtCBF1 Luciferase reporter gene co-transfected with NotchΔE ZEDN1)
# Format: cell-based
# RUN PARAMETERS: 'the above assay' (reporter gene based Notch signaling assay), ranges stated as 'from about'
pIC50: −log10 of the molar value.

Check out these entries, answers already filled in.
- MOLECULE: "CSc1ccc(CN(C2CCCCNC2=O)S(=O)(=O)c2ccc(Cl)cc2)cc1 (centres unmarked) [Compound 269]"
  REPORTED PROPERTY: "pIC50"
  MEASURED: "7.60 to 10.00"
- MOLECULE: "O=C1NCCCC[C@H]1N(Cc1ccc2c(c1)OCCO2)S(=O)(=O)c1ccc(Cl)cc1 [Compound 77]"
  REPORTED PROPERTY: "pIC50"
  MEASURED: "7.60 to 10.00"
- MOLECULE: "C=C(CC)CN(C1CCCCNC1=O)S(=O)(=O)c1ccc(Cl)cc1 (centres unmarked) [Compound 66]"
  REPORTED PROPERTY: "pIC50"
  MEASURED: "6.00 to 7.00"

Reported pIC50 ( NC(=O)CN(C1CCCCNC1=O)S(=O)(=O)c1ccc(Cl)cc1 (centres unmarked) [Compound 338] ) = < 6.00

Reported pIC50 ( C[C@@H](NC(=O)c1ccc(CN([C@@H]2CCCCNC2=O)S(=O)(=O)c2ccc(Cl)cc2)cc1)c1ccccc1 [Compound 537] ) = 7.60 to 10.00

Reported pIC50 ( O=C1c2ccccc2C(=O)C1CCCCN([C@@H]1CCCCNC1=O)S(=O)(=O)c1ccc(Cl)cc1 [Compound 108] ) = 6.00 to 7.00

Reported pIC50 ( CC(NC(=O)c1ccc(CN([C@@H]2CCCCNC2=O)S(=O)(=O)c2ccc(Cl)cc2)cc1)c1cccnc1 (some centres unmarked) [Compound 636] ) = 7.00 to 7.60

Reported pIC50 ( O=C1NCCCC[C@H]1N(Cc1ccc(-c2nnn[nH]2)cc1)S(=O)(=O)c1ccc(Cl)cc1 [Compound 663] ) = 7.00 to 7.60

Measured values drawn from patent US7939657B2 for this set.
